pIC50 values, listed per item
target: T1, Human PD-L1 His (human PD-L1 ECD with C-terminal His tag) (human, UniProt Q9NZQ7 19-238); assay: ELISA, biotin-PD-L1 to plate-bound CD80, antibody titrated
T1 construct: Biotinylated in ELISA and AlphaScreen assays; also called hPD-L1-his; biotinylated PD-L1 his
T1 sequence (Q9NZQ7 19-238 limits assumed): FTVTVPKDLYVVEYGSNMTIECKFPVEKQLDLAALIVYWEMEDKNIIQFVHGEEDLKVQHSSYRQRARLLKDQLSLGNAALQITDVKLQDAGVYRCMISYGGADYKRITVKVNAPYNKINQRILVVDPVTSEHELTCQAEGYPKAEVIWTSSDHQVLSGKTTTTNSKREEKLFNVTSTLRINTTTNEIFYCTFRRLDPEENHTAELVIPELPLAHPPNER
On this scale, pIC50 is minus log10 of a concentration expressed in M (mol/L).

Query :: Please report the recorded pIC50 for 414B06 (antibody, V domains shown, also called 414606) VH: EVHLVESGGGLVQPGGSLRLSCAASGFTFSSYWMNWVRQAPGKGLEWVANIKQDGSEKYYVDSVKGRFTVSRDNAKNSLYLQMNSLRAEDTAVYYCARVRQWSDYSDYWGQGTPVTVSS VL: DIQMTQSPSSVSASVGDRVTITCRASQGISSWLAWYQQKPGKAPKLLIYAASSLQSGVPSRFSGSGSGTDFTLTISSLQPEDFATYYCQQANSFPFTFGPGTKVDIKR .
Result :: 9.00

Query :: Endpoint output: pIC50 of 413G05 (antibody, human IgG1, kappa, V domains shown) VH: QVQLVESGGGLVKPGGSLRLSCAASGFTFSDYYMSWIRQVPGKGLEWVSYISTSGSTIYYADSVKGRFTISRDNAKNSLYLQMNSLRAEDAAVYHCARGITGTNFYHYGLGVWGQGTTVTVSS VL: DIQMTQSPSSVSASVGDRVTITCRASQGINSWLAWYQQKPGKAPKLLIYAASTLQSGVPSRFSGSGSGADFTLTISSLQPEDFATYYCQQVNSFPLTFGGGTKVEIKR . Value?
Result :: 8.96

Query :: Fill blank: measured pIC50 of the binder 385F01 (antibody, human IgG1, kappa, V domains shown) VH: EVQLVESGGGLVQPGGSLRLSCAASGFTFSSYWMSWVRQAPGKGLEWVANIKEDGSEKYYVDSVKGRFTISRDNAKNSLYLQMNSLRAEDTSVYYCARNRLYSDFLDNWGQGTLVTVSS VL: DIQMTQSPSSVSASVGDRVTITCRASQGVSSWLAWYQQKSGKAPKLLIYGASSLQSGVPSRFSGSGSGTEFILTISSLQPEDFATYYCQQANSIPFTFGPGTKVDIKR is ____.
Result :: 8.75

Please look at the following binder next.
Query :: Data request, read-out pIC50, for 416E01 (human IgG1) (antibody, V domains shown) VH: EVQLAESGGGLVQPGGSLRLSCAASGFTFSNYAMSWVRQTPGKGLEWVSAISFSGGTTYYADSVKGRFTISRDNSKNTLYLHMNSLRADDTAVYYCAKDEAPAGATFFDSWGQGTLVTVSS VL: DIQMTQSPSSVSASVGDRVTITCRASQGIRRWLAWYQQKPGKAPKLLISGASSLQSGVPSRFSGSGSGTDFTLIITSLQPEDFATYYCQQANSFPITFGQGTRLEIKR
Result :: 9.01
